# protocol.summary: MM1S cell viability effects, profiling panel, calcein-AM fluorescence, 48 h, basal (AID 1165);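 further: viability of MM1S multiple myeloma cells under basal unstimulated conditions; test concentration not given here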
# condition.label: higher = more signal
property: z-score
Give your answer as a number; write no unit.

Below: 3 molecules and their reported z-score.
CC(C)NC(=O)[C@@H]1c2ccccc2C(=O)N(Cc2ccccc2)[C@H]1c1ccc(CO)cc1; -1.42
CC(C)Cc1ccc(CN2CC[C@@H](NS(=O)(=O)c3ccccc3)C2)cc1; -3.18
COc1ccc([Si](C)(C)[C@H]2[C@H](CCn3cc(CCO)nn3)O[C@@]3(C(=O)N(Cc4ccc(N5CCOC5=O)cc4)c4ccccc43)[C@@H]2C)cc1; -3.07

-- ask Return value of z-score for input C=C(CCCC)C(=O)CC[C@H](OC(=O)c1cccnc1)c1cccc(OCCO)c1 , no commentary.
-- reply -3.35

-- ask Return value of z-score for input CC(C)OC(=O)CC(=O)CC(O)c1ccc(C#N)cc1 (configuration not stated) , no commentary.
-- reply 0.526

-- ask Return value of z-score for input [N-]=[N+]=Nc1ccccc1[C@H]1OC(c2ccc(OCCCO)cc2)=N[C@@]1(CCS(=O)(=O)c1ccccc1)C(=O)O , no commentary.
-- reply -1.42

* * *

# protocol.summary: anti-His antibody binders, primary screen, artefact control for SMM control protein annotation, biochemical, small-molecule microarray, 635 nm fluorescence (AID 1128);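 further: score merges feature fluorescence with signal-to-noise for each printed compound spot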
# condition.label: anti-His Alexa647 antibody binding, higher = more signal
List of composite z-score values.
Give your answer as a number; write no unit.

C=CC[C@@]1(C(=O)NCC(O)CO)N=C(c2ccc(OCCCO)cc2)O[C@@H]1c1ccccc1N=[N+]=[N-] (stereo partly drawn); 2.92

-- ask Return value of composite z-score for input CC(C)(C)OC(=O)CC[C@@]1(C(=O)NCCN2CCOCC2)N=C(c2ccc(OCCCO)cc2)O[C@@H]1c1ccccc1 , no commentary.
-- reply 1.37

-- ask Return value of composite z-score for input [N-]=[N+]=Nc1ccccc1C[C@]1(C(=O)NCCN2CCOCC2)N=C(c2ccc(OCCCO)cc2)O[C@H]1c1ccccc1 , no commentary.
-- reply 1.34

-- ask Return value of composite z-score for input CCOC(=O)C1=C[C@@H](C(C)C)N(S(=O)(=O)c2ccc(C)cc2)[C@H]1c1ccc(C(C)C)cc1 , no commentary.
-- reply 0.408

* * *

# protocol.summary: MM1S myeloma cell viability, profiling panel, resazurin fluorescence, basal, 24 h, PK04 Diversity Set (AID 1174);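 further: MM1S multiple myeloma cell line; test concentration not given here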
# condition.label: higher = more signal, called active from +8 up or from −8 down
List of z-score values.
Give your answer as a number; write no unit.

CCCCCCc1nc(CCCc2cc3c(c(CCCCCC)n2)[Si](C(C)C)(C(C)C)OC3)cc2c1[Si](C(C)C)(C(C)C)OC2; 0.129
Cc1cc(C)c(C(O)C2C=CC3C(=O)N(C)C(=O)C3N2Nc2ccccc2)c(C)c1 (centres undefined); -1.1
COCCOC(=O)N1C(=O)[C@@]2(c3cc(C#Cc4ccc(OC)cc4)ccc31)[C@H](C(=O)N1CCN(c3ncccn3)CC1)[C@H]1C(=O)O[C@H](c3ccccc3)[C@H](c3ccccc3)N1[C@@H]2c1ccc(O)cc1; -1.68

Now, please, on to the next compound.
-- ask Return value of z-score for input COc1ccc(NN2C(C(O)c3ccc(OC)c(OCc4ccccc4)c3)C=CC3C(=O)N(C4CCCCC4)C(=O)C32)cc1 (centres undefined) , no commentary.
-- reply 0.0269

* * *

List of composite z-score values.
# protocol.summary: small-molecule binders of probe aNOTCH2, primary screen, biochemical, small-molecule microarray, 635/667 nm fluorescence (AID 1121);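 further: score merges feature fluorescence read at 667 nm with its signal to noise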
# condition.label: higher = more signal
Give your answer as a number; write no unit.

COCCOC(=O)N1C(=O)[C@@]2(c3cc(C#Cc4ccc(OC)cc4)ccc31)[C@H](C(=O)N1CCN(c3ncccn3)CC1)[C@H]1C(=O)O[C@H](c3ccccc3)[C@H](c3ccccc3)N1[C@@H]2c1ccc(O)cc1; -0.0277
CCOC(=O)C[C@H]1[C@H](OC(=O)Cc2ccc3c(c2)OCO3)[C@@H](NC(=O)c2ccc(-c3ccccc3)cc2)c2cc(OCCCO)ccc2N1C(=O)c1ccccc1; -0.0649
C=CC(COC(C)=O)NS(=O)(=O)c1ccc(Br)cc1 (configuration not stated); -0.133
CCCNC(=O)[C@@]1(c2ccc([N+](=O)[O-])cc2)CC(=O)N(CC23CC4CC(CC(C4)C2)C3)[C@@H]1c1ccc(CO)cc1; -0.168
N#Cc1ccc(NN2C(C(O)C3CCCCC3)C=CC3C(=O)N(c4ccccc4)C(=O)C32)cc1 (configuration not stated); 0.0636

-- ask Return value of composite z-score for input COc1ccc(C(O)C2C=CC3C(=O)N(c4ccccc4)C(=O)C3N2Nc2ccc([N+](=O)[O-])cc2)cc1OCc1ccccc1 (configuration not stated) , no commentary.
-- reply 0.708

-- ask Return value of composite z-score for input O=C1C[C@@](C(=O)NC2CC2)(c2ccc([N+](=O)[O-])cc2)[C@@H](c2ccc(CO)cc2)N1CC12CC3CC(CC(C3)C1)C2 , no commentary.
-- reply -0.0091

* * *

# protocol.summary: E. coli acrAB mutant growth effects, primary screen, E. coli filamentation inducers, strain DRC39, OD650, 24 h (AID 1178);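 further: growth measured as culture turbidity by optical density at 650 nm; test concentration not given here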
# condition.label: higher = more signal, called active from +8 up or from −8 down
property: z-score
Give your answer as a number; write no unit.

COCCOC(=O)N1C(=O)[C@@]2(c3cc(C#CCCO)ccc31)[C@H](c1ccc(O)cc1)N1[C@H](c3ccccc3)[C@H](c3ccccc3)OC(=O)[C@H]1[C@@H]2C(N)=O; 0.145
O=C(O)[C@@]1(Cc2ccccc2)N=C(c2ccc(OCCCO)cc2)O[C@H]1c1ccccc1; 0.24
C[C@]1(C(=O)NCc2ccccc2)c2ccccc2C(=O)N(Cc2ccc(OC(F)(F)F)cc2)[C@H]1c1ccc(CO)cc1; 1

-- ask Return value of z-score for input COC(=O)[C@@]1(Cc2ccccc2)[C@H]2c3cc(C(=O)N(C)C)n(Cc4cc(C)n(C)n4)c3C[C@H]2CN1C(=O)c1ccccc1 , no commentary.
-- reply -1.12

-- ask Return value of z-score for input [N-]=[N+]=Nc1ccccc1[C@@H]1OC(c2ccc(OCCCO)cc2)=N[C@]1(CCS(=O)(=O)c1ccccc1)C(=O)N1CCOCC1 , no commentary.
-- reply -0.311

-- ask Return value of z-score for input NCCCCCCNC(=O)[C@H]1C[C@H]2C(=O)NCC(=O)N2[C@H]1c1cccc(OCCO)c1 , no commentary.
-- reply 1.42

-- ask Return value of z-score for input C[C@H]1NC(=O)[C@H](Cc2ccccc2)NC(=O)[C@@]23C(=O)N[C@@H](Cc4ccccc4)C2[C@H](C)[C@@]2(C)O[C@H]2C3/C=C/C/C=C\CNC1=O (stereo partly specified) , no commentary.
-- reply 1.32

* * *

List of composite z-score values.
# protocol.summary: binders of probe aFGF2 on microarray, primary screen, stem cell growth factor project, biochemical, small-molecule microarray, fluorescence 635/667 (AID 1067);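 further: measures binding of biotinylated aFGF2 protein to printed compounds on slides; z-score merges feature fluorescence and signal-to-noise across triplicate slides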
# condition.label: higher = more signal
Give your answer as a number; write no unit.

Below: 3 compounds and their reported composite z-score.
COCCOC(=O)N1C(=O)[C@@]2(c3cc(C#CCCO)ccc31)[C@H](c1ccc(O)cc1)N1[C@H](c3ccccc3)[C@H](c3ccccc3)OC(=O)[C@H]1[C@@H]2C(N)=O; -0.0173
Cc1ccc(S[C@]2(C(=O)NC3CC3)CC(=O)N(C3CCCCC3)[C@@H]2c2ccc(CO)cc2I)cc1; -0.0328
COc1cc(CO)ccc1OC(C)=O; -0.0279

Now, please, on to the next compound.
-- ask Return value of composite z-score for input CC(C)C(=C=CC[C@H](O)c1ccccc1OCCO)C[C@H](O)c1ccccn1 , no commentary.
-- reply -0.125

* * *

# protocol.summary: PSAC antagonists in infected red cells, primary screen, cell-based, P. falciparum Indochina, OD700, 1 h (AID 1154)
# condition.label: P. falciparum Indochina infected RBC osmotic lysis, higher = more signal, called active from +8 up or from −8 down
Activity calls are given as the source filed them.
property: z-score

Below: 2 molecules and their reported z-score.
C=C[C@H](COC(C)=O)N(Cc1ccc(OC(C)=O)c(OC)c1)S(=O)(=O)c1ccc(Br)cc1; 3.23 (inactive)
CC(C)=CCCC(C)=CC(O)C1C=CC2C(=O)N(c3ccccc3)C(=O)C2N1Nc1ccccc1 (centres undefined); 1.37 (inactive)

-- ask Return value of z-score for input COC(=O)C(CC#Cc1ccc2c(c1)[C@]1(C(=O)N2)[C@H](c2ccc(OCCO)cc2)N2[C@H](c3ccccc3)[C@H](c3ccccc3)OC(=O)[C@H]2[C@@H]1C(=O)NC[C@H](O)c1ccccc1)C(=O)OC , no commentary.
-- reply 2.5 (inactive)

-- ask Return value of z-score for input CN1C(=O)C2C(C1=O)C1C=C(CCCO)C2C(c2cccs2)N1C (centres undefined) , no commentary.
-- reply 1.52 (inactive)
